# assay.explanation: Pharmacokinetics after single dose of ELQ-598
# Type: in vivo
# test.conditions: male, CD1, mouse, plasma, iv, 0.3 mg/kg, mouse plasma, single ELQ-598 dose 0.3 mg/kg IV; read-out: Tmax
reported.property: Tmax

INSERT INTO measurements (structure_smiles, recorded_result) VALUES
  ('COc1cc2[nH]c(C)c(-c3ccc(-c4ccc(OC(F)(F)F)cc4)cc3)c(=O)c2cc1Cl', '4 h');

----------
# assay.explanation: Metabolic stability in liver microsomes, rat
# Format: in vitro ADME
# test.conditions: pH 7.4, predicted intrinsic clearance
reported.property: CLint scaled at 1 μM (mL/min/kg)

INSERT INTO results (molecule, reported_property, recorded_result) VALUES
  ('O=C(c1ccc(F)cc1)C1CCN(CCn2c(=O)[nH]c3ccccc3c2=O)CC1 [ketanserin]', 'CLint scaled at 1 μM', 172);

----------
# System: P. falciparum multidrug-resistant Dd2 strain
# assay.explanation: microbe, parasite or virus in culture
# Assay type: cell-based
# test.conditions: Plasmodium falciparum, DD2, 72 h, read-out: P. falciparum IC50 values, Dd2
pIC50: −log10 of the molar value.
reported.property: pIC50

INSERT INTO results (compound, target, recorded_result) VALUES
  ('Cc1[nH]c2cc(F)cc(F)c2c(=O)c1-c1ccc(Oc2ccc(OC(F)(F)F)cc2)cc1 [ELQ-400, reference compound]', 'P. falciparum multidrug-resistant Dd2 strain', 9.36),
  ('Cc1[nH]c2ccccc2c(=O)c1-c1ccc(-c2ccc(OC(F)(F)F)cc2)cc1', 'P. falciparum multidrug-resistant Dd2 strain', 8.08),
  ('COc1cc2[nH]c(C)c(-c3ccc(-c4cccc(OC(F)(F)F)c4)cc3)c(=O)c2cc1Cl', 'P. falciparum multidrug-resistant Dd2 strain', 9.30),
  ('COc1cc2[nH]c(C)c(-c3ccc(-c4ccc(OC(F)(F)F)cc4)cc3)c(=O)c2cc1F', 'P. falciparum multidrug-resistant Dd2 strain', 8.96),
  ('COc1cc2[nH]c(C)c(-c3ccc(-c4ccc(OC(F)F)cc4)cc3)c(=O)c2cc1Cl', 'P. falciparum multidrug-resistant Dd2 strain', 7.87),
  ('O=C1C(O)=C([C@H]2CC[C@H](c3ccc(Cl)cc3)CC2)C(=O)c2ccccc21 [Atovaquone, reference compound]', 'P. falciparum multidrug-resistant Dd2 strain', 9.40);

----------
# assay.explanation: Pharmacokinetics after single dose of ELQ-598
# Format: in vivo
# test.conditions: male, CD1, plasma; mouse, single ELQ-598 dose 0.3 mg/kg IV; read-out: Vdss
Below, each of the molecules is paired with its reported Vd value.
reported.property: Vd (L/kg)

INSERT INTO results (molecule, recorded_result) VALUES
  ('CCOC(=O)OCOc1c(-c2ccc(-c3ccc(OC(F)(F)F)cc3)cc2)c(C)nc2cc(OC)c(Cl)cc12 [ELQ-598]', 0.09),
  ('COc1cc2[nH]c(C)c(-c3ccc(-c4ccc(OC(F)(F)F)cc4)cc3)c(=O)c2cc1Cl [ELQ-596]', 0.78);

----------
# assay.explanation: Pharmacokinetics after single dose of ELQ-598
# Type: in vivo
# test.conditions: male, CD1; mouse plasma, single ELQ-598 dose 10 mg/kg PO (PEG400)
reported.property: k el (s⁻¹)

INSERT INTO results (structure_smiles, reported_property, recorded_result) VALUES
  ('CCOC(=O)OCOc1c(-c2ccc(-c3ccc(OC(F)(F)F)cc3)cc2)c(C)nc2cc(OC)c(Cl)cc12', 'k el', '3.89e-05');

The origin of these recorded values is paper PMC11245370.
